biological target: High affinity 3',5'-cyclic-AMP phosphodiesterase 7A (Homo sapiens, UniProt Q13946); assay: Inhibition of human recombinant PDE7A1 expressed in baculovirus infected insect Sf21 cells after 30 mins by scintillation proximity assay
Sequence (Q13946 whole entry): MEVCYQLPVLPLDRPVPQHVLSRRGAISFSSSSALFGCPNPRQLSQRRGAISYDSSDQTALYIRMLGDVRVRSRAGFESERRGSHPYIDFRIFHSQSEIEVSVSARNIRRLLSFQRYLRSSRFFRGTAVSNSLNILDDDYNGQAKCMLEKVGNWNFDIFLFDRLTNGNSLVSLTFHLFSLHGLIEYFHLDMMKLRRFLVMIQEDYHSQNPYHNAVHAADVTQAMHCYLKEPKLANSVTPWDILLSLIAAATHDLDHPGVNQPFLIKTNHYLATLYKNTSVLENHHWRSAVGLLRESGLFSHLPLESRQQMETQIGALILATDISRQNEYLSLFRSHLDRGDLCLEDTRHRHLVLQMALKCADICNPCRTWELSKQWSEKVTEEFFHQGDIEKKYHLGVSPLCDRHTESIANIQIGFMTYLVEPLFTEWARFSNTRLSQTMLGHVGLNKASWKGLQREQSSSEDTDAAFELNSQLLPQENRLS
Labelling field: enter MET if recorded IC50 is less than 30 nM. Enter NOT MET if it equals or exceeds that cut-off.

| smiles.string | discrete.label |
| --- | --- |
| COc1cc(NC(=O)c2cn(Cc3c(Cl)cccc3Cl)c3ccc(=O)[nH]c3c2=O)cc(OC)c1OC | NOT MET |
| CC(=O)Nc1ccc(NC(=O)c2cn(Cc3c(F)cccc3Cl)c3ccc(=O)[nH]c3c2=O)cc1 | MET |
| COc1ccc(NC(=O)c2cn(Cc3c(F)cccc3F)c3ccc(=O)[nH]c3c2=O)cc1 | NOT MET |
| CC(=O)c1ccc(NC(=O)c2cn(Cc3c(F)cccc3F)c3ccc(=O)[nH]c3c2=O)cc1 | MET |

Consider now this further molecule.
Task: Please state whether IC50 is below 30 nM for CC(=O)Nc1ccc(NC(=O)c2cn(Cc3c(F)cccc3F)c3ccc(=O)[nH]c3c2=O)cc1
Output: MET
